# Test system: PC-3
# PROCEDURE_DETAILS: NCI tumour cell line growth inhibition, 48 h
Active and inactive are the calls of the source. Cut-off read from the data, not from the text of the source: active = GI50 up to about 1.1 µM and inactive = higher.
Your reply should match one of these outcome classes. 1 (active), 0 (inactive)

Test call, this compound: CCCNC(=O)CCC(C)[C@H]1CCC2C3C(C[C@H](OC(C)=O)[C@@]21C)[C@@]1(C)CCC2(C[C@H]1C[C@H]3OC(C)=O)OOC1(CCC(C)CC1)OO2 (stereo not given in full) 0

Same lookup for CCOC(=O)C(N)CSC(=O)NC (stereo not given) , please. 0

Same lookup for CC1=C/C(=N\N(C)C)C(C(O)(C(F)(F)F)C(F)(F)F)C(C)(C)C1 (stereo not given) , please. 0

Same lookup for `O=C(NN=C1CCCCC1)Nc1ccccc1Cl` , please. 0

Same lookup for COC(=O)C(NC(=O)CSc1nnc(COc2ccc(Cl)cc2)n1-c1ccccc1)C(C)C (stereo not given) , please. 0
